- EXPERIMENTAL DETAILS: Oral pharmacokinetics in rat plasma (LC-MS)
- CONDITION CONTEXT: male, Sprague-Dawley, rat, plasma, po, 200 mg/kg
PROPERTY MEASURED: AUC(0-t)

Prompt: Query (molecule): O=C(Nc1ccc([N+](=O)[O-])cc1Cl)c1cc(Cl)ccc1O [niclosamide, reference compound] ; field requested: AUC(0-t)
Response: 4.14 µM·h

---

- Tested on: C4-2B MDVR cells
- EXPERIMENTAL DETAILS: Cell growth assay (cell numbers), C4-2B MDVR
- Type: cell-based
- CONDITION CONTEXT: C4-2B MDVR, 48 hours, increasing doses of niclosamide/analogs, FIG. 6

| COMPOUND | cell growth |
| --- | --- |
| CNC(=O)c1ccc(N2C(=S)N(c3cnc(C#N)c(C(F)(F)F)c3)C(=O)C23CCC3)cc1F [ARN509, reference compound] | did not inhibit |
| C[C@]12CC[C@H](O)CC1=CC[C@@H]1[C@@H]2CC[C@]2(C)C(c3cccnc3)=CC[C@@H]12 [abiraterone, reference compound] | did not inhibit |
| CNC(=O)c1ccc(N2C(=S)N(c3ccc(C#N)c(C(F)(F)F)c3)C(=O)C2(C)C)cc1F [enzalutamide, reference compound] | did not inhibit |

---

- EXPERIMENTAL DETAILS: in vivo
- CONDITION CONTEXT: male, Sprague-Dawley, rat, in vivo, po, 200 mg/kg
PROPERTY MEASURED: Tmax (min)
All answers are understood in min, so give the number only.

Prompt: I am curious: what Tmax value has been reported for C=CC(=O)Oc1ccc(Cl)cc1C(=O)Nc1ccc([N+](=O)[O-])cc1Cl [Compound 31] ?
Response: 25

---

- EXPERIMENTAL DETAILS: in vivo
- CONDITION CONTEXT: male, Sprague-Dawley, rat, in vivo, po, 200 mg/kg, Cmax
PROPERTY MEASURED: Cmax (nM)
Give your result in nM as a bare value.

Prompt: What value of Cmax has been reported for the following compound? C=CC(=O)Oc1ccc(Cl)cc1C(=O)Nc1ccc([N+](=O)[O-])cc1Cl
Response: 2680

---

- TEST TARGET: AR-V7 (Homo sapiens, UniProt P10275)
- Sequence (P10275 1-644 isoform P10275-3): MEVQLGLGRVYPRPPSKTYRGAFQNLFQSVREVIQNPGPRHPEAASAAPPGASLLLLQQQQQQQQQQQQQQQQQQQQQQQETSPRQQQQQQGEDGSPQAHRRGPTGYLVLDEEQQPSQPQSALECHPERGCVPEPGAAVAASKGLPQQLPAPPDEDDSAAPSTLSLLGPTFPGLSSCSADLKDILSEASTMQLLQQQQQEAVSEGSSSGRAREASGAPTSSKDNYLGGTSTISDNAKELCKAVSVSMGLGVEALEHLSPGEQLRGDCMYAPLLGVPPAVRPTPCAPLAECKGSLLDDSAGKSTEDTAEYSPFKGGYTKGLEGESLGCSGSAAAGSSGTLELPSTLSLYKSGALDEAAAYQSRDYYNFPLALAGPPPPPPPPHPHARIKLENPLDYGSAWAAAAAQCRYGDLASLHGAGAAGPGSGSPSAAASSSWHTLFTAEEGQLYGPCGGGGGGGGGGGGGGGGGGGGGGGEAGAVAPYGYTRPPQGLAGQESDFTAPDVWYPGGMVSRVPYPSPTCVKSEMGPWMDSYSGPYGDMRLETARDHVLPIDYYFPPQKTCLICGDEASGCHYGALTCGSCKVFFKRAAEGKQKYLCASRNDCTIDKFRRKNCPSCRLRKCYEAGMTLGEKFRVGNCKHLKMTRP
- EXPERIMENTAL DETAILS: Western blot of AR-V7 expression in CWR22Rv1 cell lysates
- Format: cell-based
- Parameters: endogenous in cells; host or cells: CWR22Rv1 prostate cancer cells (also grown as xenograft tumours)
- CONDITION CONTEXT: CWR22Rv1 cells, FIG. 2A
PROPERTY MEASURED: AR-V7 (AR variant) expression

Please review the entries below; each comes with its answer.
| MOLECULE | TEST TARGET | AR-V7 (AR variant) expression |
| --- | --- | --- |
| O=C(Nc1ccccc1Cl)c1cc(Cl)ccc1O | AR-V7 (Homo sapiens, UniProt P10275) | no effect |
| O=C(Nc1ccc([N+](=O)[O-])cc1Cl)c1ccccc1O | AR-V7 (Homo sapiens, UniProt P10275) | no effect |
| COC(=O)COc1ccc(Cl)cc1C(=O)Nc1ccc([N+](=O)[O-])cc1Cl | AR-V7 (Homo sapiens, UniProt P10275) | no effect |
| CCC(=O)Oc1ccc(Cl)cc1C(=O)Nc1ccc([N+](=O)[O-])cc1Cl | AR-V7 (Homo sapiens, UniProt P10275) | inhibited |
| O=C(Nc1cc(F)cc(F)c1)c1cc(Cl)ccc1O | AR-V7 (Homo sapiens, UniProt P10275) | no effect |

Prompt: Param readout= AR-V7 (AR variant) expression; system= AR-V7 (Homo sapiens, UniProt P10275); entry= O=C(O)COc1ccc(Cl)cc1C(=O)Nc1ccc([N+](=O)[O-])cc1Cl ; returns value.
Response: no effect

Prompt: Form entry - test system: AR-V7 (Homo sapiens, UniProt P10275); read-out: AR-V7 (AR variant) expression; molecule: O=C(Nc1ccc(C(F)(F)F)cc1Cl)c1cc(Cl)ccc1O
Response: inhibited

Prompt: API: value(readout= AR-V7 (AR variant) expression, system= AR-V7 (Homo sapiens, UniProt P10275), query= O=C(Nc1cc(C(F)(F)F)cc(C(F)(F)F)c1)c1cc(Cl)ccc1O )
Response: inhibited

Prompt: Query AR-V7 (AR variant) expression on AR-V7 (Homo sapiens, UniProt P10275) for O=C(Nc1ccc([N+](=O)[O-])cc1Cl)c1cccc(Cl)c1
Response: no effect

Prompt: Field: AR-V7 (AR variant) expression (AR-V7 (Homo sapiens, UniProt P10275)). Entry: CC(C)(C)OC(=O)COc1ccc(Cl)cc1C(=O)Nc1ccc([N+](=O)[O-])cc1Cl
Response: no effect

Prompt: Recorded AR-V7 (AR variant) expression for C=CC(=O)Oc1ccc(Cl)cc1C(=O)Nc1ccc([N+](=O)[O-])cc1Cl with AR-V7 (Homo sapiens, UniProt P10275), please?
Response: inhibited
